Hello, the source for this data is ChEMBL document CHEMBL2380244, in case you need it.

Readout Kind: pIC50
Scale: pIC50 equals -log10([C]), with [C] in mol/L.

Ask: For Oxysterols receptor LXR-alpha (Homo sapiens, UniProt Q13133), give the measured pIC50 of the entry Clc1ccc(CN(Cc2cccnc2)Cc2nccs2)cc1
Result: 4.30

Ask: For Oxysterols receptor LXR-alpha (Homo sapiens, UniProt Q13133), give the measured pIC50 of the entry CC(C)CCN(Cc1ccc(Cl)cc1)Cc1ccc([N+](=O)[O-])s1
Result: 4.80

Ask: For Oxysterols receptor LXR-alpha (Homo sapiens, UniProt Q13133), give the measured pIC50 of the entry N#Cc1ccc(CN(Cc2cccnc2)Cc2ccc(F)c(F)c2)s1
Result: 4.80

====

# Test Target: Nuclear receptor subfamily 1 group D member 1 (Homo sapiens)
# Sequence (P20393 whole entry): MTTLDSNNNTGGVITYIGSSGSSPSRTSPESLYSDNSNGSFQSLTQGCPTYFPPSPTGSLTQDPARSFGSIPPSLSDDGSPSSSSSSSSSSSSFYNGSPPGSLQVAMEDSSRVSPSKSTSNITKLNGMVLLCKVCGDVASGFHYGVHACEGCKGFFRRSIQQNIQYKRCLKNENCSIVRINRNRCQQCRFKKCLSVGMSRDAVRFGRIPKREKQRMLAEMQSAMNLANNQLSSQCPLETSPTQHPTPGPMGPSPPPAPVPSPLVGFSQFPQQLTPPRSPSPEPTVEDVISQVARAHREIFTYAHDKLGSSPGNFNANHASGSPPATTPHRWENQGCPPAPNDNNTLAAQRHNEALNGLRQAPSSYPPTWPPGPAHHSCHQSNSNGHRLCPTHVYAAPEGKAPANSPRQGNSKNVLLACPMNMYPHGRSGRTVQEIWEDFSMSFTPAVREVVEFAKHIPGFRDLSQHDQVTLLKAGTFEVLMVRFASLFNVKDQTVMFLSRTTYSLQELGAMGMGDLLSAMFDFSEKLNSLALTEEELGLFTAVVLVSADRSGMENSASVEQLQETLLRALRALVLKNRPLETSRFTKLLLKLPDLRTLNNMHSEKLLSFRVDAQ
# Experiment: Agonist activity at biotinylated REV-ERBalpha (unknown origin) assessed as increase in biotinylated NCOR peptide recruitment after 1 hr by FRET assay
Readout Kind: EC50 (nM)
Write it as a number; the unit nM goes unstated.

Ask: Return EC50 (reported value) for this compound: O=[N+]([O-])c1ccc(CN(Cc2ccc(F)cc2)Cc2cccnc2)s1
Result: 160

Ask: Return EC50 (reported value) for this compound: Cc1cccc(CN(Cc2cccnc2)Cc2ccc([N+](=O)[O-])s2)c1
Result: 200

Ask: Return EC50 (reported value) for this compound: COc1ccc(CN(Cc2cccnc2)Cc2ccc(C#N)s2)cc1
Result: 630

====

pIC50: −log10 of the molar value.
Readout Kind: pIC50

Ask: For Oxysterols receptor LXR-alpha (Homo sapiens, UniProt Q13133), give the measured pIC50 of the entry Clc1ccc(CN(Cc2cccnc2)Cc2ncc[nH]2)cc1
Result: < 4.00

Ask: For Oxysterols receptor LXR-alpha (Homo sapiens, UniProt Q13133), give the measured pIC50 of the entry COc1ccc(CN(Cc2cccnc2)Cc2ccc(C#N)s2)cc1
Result: < 4.00

Ask: For Oxysterols receptor LXR-alpha (Homo sapiens, UniProt Q13133), give the measured pIC50 of the entry O=[N+]([O-])c1ccc(CN(Cc2ccccc2)Cc2ccc(Cl)cc2)s1
Result: < 4.00
